test method notes: Cytotoxicity against HIV-2 ROD mock-infected human MT4 cells assessed as reduction in cell viability by MTT assay
Format: cell-based
experimental context: HIV-2 ROD mock-infected MT4 cells
measurement kind: CC50 (µM)
Give bare numbers, in µM.

Challenge: What measured CC50 goes with "O=C(CSc1nnccc1-c1cccc2ccccc12)Nc1ccccc1Cl" ?
Response given: 35

Below is a list of compounds. For each, state its recorded CC50.
1. O=C(CSc1nnccc1-c1cccc2ccccc12)c1ccc(Cl)cc1Cl
2. O=C(CSc1nnccc1-c1cccc2ccccc12)Nc1ccccc1F
3. CC(=O)c1ccc(NC(=O)CSc2nnccc2-c2cccc3ccccc23)c(Br)c1
4. O=C(CSc1nnccc1-c1cccc2ccccc12)Nc1ccccc1[N+](=O)[O-]

Response given:
1. 55
2. 241
3. 48.5
4. 135

* * *

test method notes: Cytotoxicity against HIV-1 3B mock-infected human MT4 cells assessed as reduction in cell viability by MTT assay
Type: cell-based
experimental context: HIV-1 3B mock-infected MT4 cells
measurement kind: CC50 (µM)
Answers are plain numbers, in µM.

These solved cases illustrate the format of a correct answer.
Challenge: Please report the recorded CC50 for "CCOC(=O)c1ccc(NC(=O)CSc2nnccc2-c2cccc3ccccc23)c(Br)c1" .
Response given: 237

Challenge: Entry "O=C(CSc1nnccc1-c1cccc2ccccc12)N1CCCc2ccccc21" : reported CC50 = ?
Response given: 34.5

Challenge: Any idea what CC50 was measured for "O=C(CSc1nnccc1-c1cccc2ccccc12)Nc1ccccc1[N+](=O)[O-]" ?
Response given: 99.9

Okay, now this compound:
Challenge: CC50 lookup needed for "COC(=O)c1ccc(NC(=O)CSc2nnccc2-c2cccc3ccccc23)c(Br)c1" , thanks.
Response given: 159

* * *

test method notes: Selectivity ratio of CC50 for HIV-1 3B mock-infected human MT4 cells to EC50 for HIV-1 3B infected in human MT4 cells
Type: ADME, cell-based
experimental context: read-out: Ratio CC50/EC50
measurement kind: selectivity ratio

Consider the following illustrative entries.
Challenge: Quick check: selectivity ratio of Nc1ccn([C@H]2CC[C@@H](CO)O2)c(=O)n1 [ZALCITABINE] ?
Response given: > 93

Challenge: I am curious: what selectivity ratio value has been reported for "O=C(CSc1nnccc1-c1cccc2ccccc12)N1CCCc2ccccc21" ?
Response given: < 1

Challenge: Looking for the measured selectivity ratio of O=C1Nc2ccc(Cl)cc2[C@@](C#CC2CC2)(C(F)(F)F)O1 [EFAVIRENZ] , can you help?
Response given: > 1190

Challenge: Any idea what selectivity ratio was measured for CC(C)Nc1cccnc1N1CCN(C(=O)c2cc3cc(NS(C)(=O)=O)ccc3[nH]2)CC1 [DELAVIRDINE] ?
Response given: > 1100

Next:
Challenge: Give the measured selectivity ratio of "O=C(CSc1nnccc1-c1cccc2ccccc12)Nc1ccc(Cl)cc1Cl" .
Response given: > 684

* * *

test method notes: Cytotoxicity against HIV-2 ROD mock-infected human MT4 cells assessed as reduction in cell viability by MTT assay
Assay type: cell-based
experimental context: HIV-2 ROD mock-infected MT4 cells
Please respond with reported CC50 for every item in the list.

Challenge: Item Nc1ccn([C@H]2CC[C@@H](CO)O2)c(=O)n1 [ZALCITABINE] has what recorded CC50?
Response given: > 94.7 µM

Please state, for each entry, its recorded CC50.
1. O=C1Nc2ccc(Cl)cc2[C@@](C#CC2CC2)(C(F)(F)F)O1 [EFAVIRENZ]
2. COC(=O)c1ccc(NC(=O)CSc2nnccc2-c2cccc3ccccc23)c(Br)c1

Response given:
["> 6.34 µM", "> 246 µM"]
